A collection of compounds and their measured IC50
Test system: A549
ASSAY EXPLANATION: Cytotoxicity against human A549 cells
Assay type: functional, cell-based
Field: numeric (µM). Do not append units.

Please review the entries below; each comes with its answer.
CC(=O)O[C@H]1C(=O)[C@@]2(C)[C@H]([C@H](OC(=O)c3ccccc3)[C@]3(O)C[C@H](OC(=O)[C@H](O)[C@@H](NC(=O)c4ccccc4)c4ccccc4)C(C)=C1C3(C)C)[C@]1(OC(C)=O)CO[C@@H]1C[C@@H]2O	0.002
O=C(N[C@@H](c1ccccc1)[C@@H](O)C(=O)OC12CC3CC(CC(C3)C1)C2)c1ccccc1	5.6
CC(C)(C)OC(=O)N[C@@H](c1ccccc1)[C@@H](O)C(=O)O[C@H]1C[C@H]2C[C@@H](C1)C[C@@H](C(=O)OC1COC1)C2	3.8

I have this compound here, COc1cc2c(c(OC)c1OC)-c1ccc(OC)c(=O)cc1[C@@H](NC(=O)CCCCCC(=O)OC1C3CC4CC1CC(OC(=O)[C@H](O)[C@@H](NC(=O)OC(C)(C)C)c1ccccc1)(C4)C3)CC2 (mixture of isomers) , and I need its recorded IC50.
0.0006

For `CC(C)(C)OC(=O)N[C@@H](c1ccccc1)[C@@H](O)C(=O)OC12CC3CC(C1)CC(C(=O)OC1COC1)(C3)C2` then?
2.5

Another compound to look at: O=C(N[C@@H](c1ccccc1)[C@@H](O)C(=O)OC12CC3CC(C1)C(OC(=O)c1ccccc1)C(C3)C2)c1ccccc1 (mixture of isomers)
9.5

###

Species on record: Bos taurus
ASSAY EXPLANATION: Induction of bovine tubulin polymerization relative to taxol
Design: concentration or dose not given beside the values
MEASURED PROPERTY: Activity (%)

Look over these answered cases.
CC(C)(C)OC(=O)N[C@@H](c1ccccc1)[C@@H](O)C(=O)OC12CC3CC(C1)CC(C(=O)OC1COC1)(C3)C2	27.1
CC(C)(C)OC(=O)N[C@@H](c1ccccc1)[C@@H](O)C(=O)O[C@H]1C[C@H]2C[C@@H](C1)C[C@@H](C(=O)OC1COC1)C2	25.3
O=C(CCNC(=O)c1ccccc1)OC12CC3CC(CC(C3)C1)C2	32.9

(a) O=C(N[C@@H](c1ccccc1)[C@@H](O)C(=O)OC12CC3CC(C1)C(OC(=O)c1ccccc1)C(C3)C2)c1ccccc1 (mixture of isomers)
(b) O=C(N[C@@H](c1ccccc1)[C@@H](O)C(=O)OC12CC3CC(CC(C3)C1)C2)c1ccccc1
Which record shows the lower Activity: the first, a , or the second, b ? # reply format: chosen label
a

Measured values drawn from ChEMBL document CHEMBL1158186 for this set.
